testProtocol: Quantitative highthroughput screen to assess conditional lethalithy of NOMO1 cells grown in RPMI1640 with untreated serum (RPMI+s) (AID 1963876); further: nearly all actives have a fitted effect of over 35% in size; further: potency means the concentration at half of the fitted maximal effect;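 on viability: 100% = DMSO wells and 0% = empty wells without cells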
appliedConditions: NOMO1 AML cells in RPMI+serum, CellTiter-Glo viability, 48 h; series mostly up to 45.8 µM
Results filed as inconclusive are left out. Calls of active or inactive are those of the source. The call rests on the fitted dose curve; in most records, active means well fitted cell-killing curve with a large enough effect; inconclusive means small, poorly fitted or top-dose-only effect; inactive means flat fitted curve, though single readings scatter.
reportedProperty: Potency

// worked examples, Potency included
# compound, Potency
records = [
    ("Nc1nc(Nc2ccc(S(N)(=O)=O)cc2)nn1C(=O)c1c(F)cccc1F", "16.6 µM (active)"),
    ("CC1(C)S[C@H]2[C@H](NC(=O)[C@@H](N)c3ccc(O)cc3)C(=O)N2[C@@H]1C(=O)O", "8.33 µM (active)"),
    ("CN1CCN(c2c(F)cc3c(=O)c(C(=O)O)cn(CCF)c3c2F)CC1", "inactive"),
    ("CC(COc1ccccc1)N(CCCl)Cc1ccccc1 (stereo not drawn)", "0.166 µM (active)"),
    ("COc1ncc(-c2ccc3nccc(-c4ccnnc4)c3c2)cc1NS(=O)(=O)c1ccc(F)cc1F", "0.105 µM (active)"),
    ("OC[C@H]1O[C@@H](O[C@H]2[C@@H](O)[C@@](O)(CO)O[C@@H]2CO)[C@H](O)[C@@H](O)[C@@H]1O", "inactive"),
    ("Nc1ncnc2c1ncn2[C@@H]1O[C@@H](CO)[C@H](O)[C@H]1O", "inactive"),
    ("CNc1nc(Nc2cnn([C@H]3CCN(C4COC4)C[C@@H]3F)c2Cl)ncc1C(F)(F)F", "1.66 µM (active)"),
    ("Nc1nc(Cl)nc2c1ncn2[C@H]1C[C@H](O)[C@@H](CO)O1", "0.209 µM (active)"),
    ("CC(C[N+](C)(C)C)OC(N)=O (stereo not drawn)", "inactive"),
]

Given the entry O=C1CCCC(=O)C1C(=O)c1ccc(C(F)(F)F)cc1[N+](=O)[O-] , report its measured Potency.
inactive

And the next one, CCC[C@H]1C[C@H](C(=O)N[C@@H]([C@@H]2O[C@@H](SC)[C@@H](O)[C@@H](O)[C@@H]2O)[C@H](C)Cl)N(C)C1 ?
inactive

And the next one, Nc1nc(F)nc2c1ncn2[C@@H]1O[C@H](CO)[C@@H](O)[C@@H]1O ?
0.469 µM (active)

====

testProtocol: Cellular viability qHTS for adrenocortical cancer (ACC) cell line SW-13 (AID 1963989);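 further: cells grown in serum-free medium with ITS supplement; on the % scale 0 is the no-effect control and ±100 the full control effect; nearly all actives have a fitted effect of over 65% in size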
appliedConditions: SW-13 ACC cells viability, CellTiter-Glo, 48 h; active compounds read low
Inconclusive results are not listed.
reportedProperty: activity (max response) (%)
Answer format: numeric, % implied, no suffix.

// worked examples, activity (max response) included
# molecule, outputUnit, activity (max response)
records = [
    ("C/C(=N\\O)[C@@H](C)NCC(C)(C)CN[C@H](C)/C(C)=N/O", "%", 8.19),
    ("NS(=O)(=O)c1cc(C(=O)NN2C[C@H]3[C@H]4CCC(C4)[C@H]3C2)ccc1Cl", "%", -7.57),
    ("O=C(O)CCNC(=O)c1ccccc1", "%", 1.23),
    ("N[C@H](C(=O)O)c1ccc(O)cc1", "%", 5.01),
    ("CCO[C@@H]1OC(=O)C[C@@H]1NC(=O)[C@@H]1CCCN2C(=O)CC[C@H](NC(=O)c3nccc4ccccc34)C(=O)N12", "%", -8.71),
    ("O=C1c2ccccc2C(=O)C1c1ccc(Br)cc1", "%", 7.53),
]

Given the entry COc1ccc(CN(CCN(C)C)c2ncccn2)cc1 , report its measured activity (max response).
-7.84

And the next one, Cc1cc2nc3c(=O)[nH]c(=O)nc-3n(CC(O)C(O)C(O)CO)c2cc1C (stereo unspecified) ?
9.67

And the next one, CCN(CC)CCNC(=O)COc1ccc(OC)cc1 ?
-8.99

And the next one, OC(CCCN1CCCCC1)(c1ccccc1)c1ccccc1 ?
-5.81

And the next one, CCN(CC)C(=O)C1CN2CCc3cc(OC)c(OC)cc3C2CC1OC(C)=O (stereo unspecified) ?
-2.45

====

testProtocol: Quantitative highthroughput screen to assess conditional lethalithy of P12 Ichikawa cells grown in RPMI1640 with untreated serum (RPMI+s) (AID 1963881); further: nearly all actives have a fitted effect of over 35% in size;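 on viability: 100% = DMSO wells and 0% = empty wells without cells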
appliedConditions: ATP luminescence, 48 h; viability; series mostly up to 45.8 µM
Records with an inconclusive call do not appear. Activity calls are given as the source filed them. The call rests on the fitted dose curve; in most records, active means well fitted cell-killing curve with a large enough effect; inconclusive means small, poorly fitted or top-dose-only effect; inactive means flat fitted curve, though single readings scatter.
// classify into YES (active), NO (inactive)

Example entries and their recorded answers appear below.
# compound, cat
records = [
    ("Clc1ccc2ncc(-c3cccc(NC4CNC4)n3)n2c1", "YES"),
    ("CCCC(CCC)C(=O)O", "NO"),
    ("C[C@]12C=CC(=O)C=C1CC[C@@H]1[C@@H]2[C@@H](O)C[C@@]2(C)[C@@H]1CC[C@]2(O)C(=O)CO", "YES"),
    ("CCCCNc1cc(C(=O)O)cc(S(N)(=O)=O)c1Oc1ccccc1", "NO"),
    ("COc1cc(C(C)=O)ccc1OCCCN1CCC(c2noc3cc(F)ccc23)CC1", "NO"),
]

Give the logged outcome of this assay for the following compound: CCCNC(=O)Nc1ccc(Oc2ncnc3cc(OC)c(OC)cc23)cc1Cl
NO

And the next one, O=C(O)c1ccc(Nc2ncc3c(n2)-c2ccc(Cl)cc2C(c2c(F)cccc2F)=NC3)cc1 ?
YES

And the next one, c1ccc(-c2nn3c(c2-c2ccnc4cc(OCCN5CCOCC5)ccc24)CCC3)nc1 ?
NO

And the next one, CC=CCC=CCCC(=O)[C@H]1O[C@@H]1C(N)=O ?
NO

And the next one, Cc1noc(-c2ccc(CSCCC(=O)O)cc2)c1NC(=O)OC(C)c1ccccc1Cl (stereo not given) ?
NO

And the next one, CC(C)c1ccccc1Cc1cc(C(=O)Nc2ccc(S(=O)(=O)c3ccccc3C(C)(C)C)cc2)c(O)c(O)c1O ?
NO

====

testProtocol: Cellular viability qHTS for adrenocortical cancer (ACC) cell line NCI-H295R (AID 1963990);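 further: 0% = DMSO only wells and -100% = full killing with cytotoxic reference compound; nearly all actives have a fitted effect of over 60% in size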
appliedConditions: CellTiter-Glo ATP luminescence, 48 h; series mostly up to 46.1 µM
Records with an inconclusive call do not appear. Activity calls are given as the source filed them. Calls come from the whole dose curve; as a rule, active = well fitted cell-killing curve with a large enough effect; inconclusive = small, poorly fitted or top-dose-only effect; inactive = flat fitted curve, though single readings scatter.
// classify into active, inactive

Example entries and their recorded answers appear below.
# molecule, cat
records = [
    ("COc1cc(C(C)C)c(Oc2cnc(NC(CO)CO)nc2N)cc1I", "inactive"),
    ("CCOC(=O)[C@H](CCc1ccccc1)N[C@H]1CS[C@H](c2cccs2)CN(CC(=O)O)C1=O", "inactive"),
]

Give the logged outcome of this assay for the following molecule: C[C@H](N)[C@H](O)c1cccc(O)c1
inactive

And the next one, O=C(O)[C@@H]1CSCN1 ?
inactive

And the next one, NCCc1ccc(O)c(O)c1 ?
inactive

====

testProtocol: Quantitative highthroughput screen to assess conditional lethalithy of SEM cells grown in Human Plasma-Like Medium with dialyzed fetal bovine serum (HPLM+ds) (AID 1963882); further: nearly all actives have a fitted effect of over 35% in size
appliedConditions: SEM B-ALL cells in HPLM+ds, CellTiter-Glo viability, 48 h; series mostly up to 45.8 µM
Results filed as inconclusive are left out. Activity calls are given as the source filed them. Calls follow the shape of the dose curve; as a rule, active = well fitted cell-killing curve with a large enough effect; inconclusive = small, poorly fitted or top-dose-only effect, or effect the other way; inactive = no such curve, though single readings can be large or run the other way.
// classify into active, inactive

# chemicalString, cat
measured = [
    ("Cc1cc(CN2CCN(c3c(Br)cnc4nc(-c5ccc(N6CCN(C)CC6)cc5)[nH]c34)CC2)no1", "active"),
    ("O=C(NNC(=O)c1ccc(CNS(=O)(=O)c2ccc(F)c(Cl)c2)cc1)c1ccccc1", "inactive"),
    ("COc1ncc(-c2ccc3nccc(-c4ccnnc4)c3c2)cc1NS(=O)(=O)c1ccc(F)cc1F", "active"),
    ("CC(C)(OCc1nn(Cc2ccccc2)c2ccccc12)C(=O)O", "inactive"),
    ("Cc1c(C(=O)NN2CCCCC2)nn(-c2ccc(Cl)cc2Cl)c1-c1ccc(Cl)cc1", "inactive"),
    ("O=P(O)(O)C(O)(Cn1ccnc1)P(=O)(O)O", "inactive"),
    ("Nc1ccc(S(=O)(=O)Nc2ncccn2)cc1", "inactive"),
    ("CC(C)[C@H](O)C(=O)N[C@@H](C)C(=O)N[C@@H]1C(=O)N(C)CCc2ccccc21", "inactive"),
]

Give the logged outcome of this assay for the following compound: COc1nc(C)nc(Cl)c1NC1=NCCN1
inactive

And the next one, COc1ccc(Cc2ccc(NC(N)=O)cc2)cc1-c1cccc(Cl)c1 ?
inactive

====

testProtocol: Viability qHTS for spleen associated tyrosine kinase inhibitor (SYKi) drug resistant MV4-11 cells (AID 1963824); further: nearly all actives have a fitted effect of over 35% in size
appliedConditions: SYKi-resistant MV4-11 viability, CellTiter-Glo, 72 h; series mostly up to 45 µM
Inconclusive results are not listed. Active and inactive are the calls of the source. Calls come from the whole dose curve; as a rule, active = well fitted cell-killing curve with a large enough effect; inconclusive = small, poorly fitted or top-dose-only effect, or effect the other way; inactive = no such curve, though single readings can be large or run the other way.
// classify into active, inactive

Example entries and their recorded answers appear below.
# chemicalString, cat
measured = [
    ("Cc1ccc(Nc2ncc3c(n2)N(C)C(=O)N(c2cc(NC(=O)c4cccc(C(F)(F)F)c4)ccc2C)C3)cn1", "active"),
    ("CCOC(=O)c1ccnc(CNCC(=O)N(CC)CCN(C)C)c1", "inactive"),
    ("CC(=O)NCCNc1cc(Cl)nn2c(-c3cccc(S(=O)(=O)N(C)C)c3)c(C)nc12", "active"),
    ("CC(=O)c1ccc(O)c(C(N)=O)c1", "inactive"),
]

--- query ---
Give the logged outcome of this assay for the following compound: C=CC(=O)N[C@H]1CCOC[C@H]1Nc1ncc2cc(-c3c(Cl)c(OC)cc(OC)c3Cl)ccc2n1
active
